Where these numbers come from: a melting point compilation (Tetko et al.)

ENDPOINT: melting point

RECORD_SMILES	ENDPOINT	ENDPOINT_RESULT
Brc1cc(Br)c(Br)c(Br)c1	melting point	99.5 °C
CCOC(=O)c1c(-c2ccccc2)csc1NC(=O)C(Cl)Cl	melting point	92 to 93 °C
Cc1ccnc(N)c1[N+](=O)[O-]	melting point	136 to 141 °C
OCCOc1ccc(OCCO)cc1	melting point	104 to 107 °C
O=C1CC(=O)CC(c2ccc(F)cc2)C1	melting point	174 to 178 °C
N#Cc1c([N+](=O)[O-])ccc(Cl)c1Cl	melting point	90 to 93 °C
COc1cc(CCl)cc(OC)c1	melting point	46 to 48 °C
CCN(CC)c1c([N+](=O)[O-])cc(C(F)(F)F)c(N)c1[N+](=O)[O-]	melting point	98.5 °C
O=C1/C(=N\Nc2ccccc2)C(c2ccc([N+](=O)[O-])cc2)=NN1c1ccccc1	melting point	239 to 240 °C

----------
Recorded melting point values for a group of molecules are listed next.

MOLECULE	melting point
C/C=C/C=C(C)/C=N/Nc1ccc([N+](=O)[O-])cc1[N+](=O)[O-]	198 to 200 °C
O=C(Cl)c1cc(Cl)nc2ccc(Br)cc12	140 to 142 °C
O=CC(Cl)C=O	140 to 145 °C
Brc1ccc(Oc2cc(Br)ccc2Br)c(Br)c1	< 20 °C
CCOC(=O)CCC(NP(=O)(OC)C(C)NC(=O)CCCCN1C(=O)c2ccccc2C1=O)C(=O)OCC (stereo not given)	79 to 82 °C
COc1ccc(C(=O)Cn2cc([N+](=O)[O-])nc2C)cc1	250 to 252 °C
CCOc1ccc(C=CC(=O)O)cc1	195 to 197 °C
C=C1OC(=O)OC1(C)C	26 to 30 °C
Cc1nccc(-c2cccc(Br)c2)n1	66 to 69 °C
COc1ccc(C(=O)CCCCl)c(OC)c1	58 to 60 °C

----------
ENDPOINT: melting point (°C)

MOLECULE	ENDPOINT	UNIT_ABBREV	ENDPOINT_RESULT
COc1cc(C(=O)c2ccc(C)cc2)c([N+](=O)[O-])cc1OC	melting point	°C	110
CC(=O)/N=c1\sc(C(C)=O)nn1-c1ccccc1[N+](=O)[O-]	melting point	°C	184
O=Cc1cc(I)cc(I)c1O	melting point	°C	108
COc1ccc(Cl)c(N)c1	melting point	°C	27
CCCCCCCCOC(=O)CCC	melting point	°C	-55.6
CCC(C)Nc1c([N+](=O)[O-])cc(C(C)(C)C)cc1[N+](=O)[O-] (configuration not stated)	melting point	°C	60
O=S1(=O)CCOCC1	melting point	°C	132

----------
Reported melting point values for a set of compounds

COMPOUND	melting point
OCC1OC(n2cnc3c(NCc4ccccc4)ncnc32)C(O)C1O (stereo unspecified)	184 to 186 °C
c1ccc(-c2nsc(N3CCNCC3)n2)cc1	93 to 94 °C
O=C1OC(c2ccccc2)=NC1=Cc1ccco1	158 to 159 °C
CC(=O)Nc1c(F)ccc([N+](=O)[O-])c1F	148 to 149 °C
O=C(O)c1cc2cc([N+](=O)[O-])ccc2s1	238 to 241 °C
CC(C)(C)OC(=O)N1CCCC[C@@H]1C(=O)O	118 to 122 °C
Clc1ccc(OCCBr)cc1	38 to 39 °C
O=C(Nc1ccccn1)C(C(F)(F)F)C(F)(F)F	108 to 110 °C
Cc1nc(NC(=N)N)sc1Br	203 to 205 °C
Cc1cc(C(=O)O)c(-c2ccccc2)o1	145 to 147 °C
Cc1nccc(O)c1OCc1ccc(Cl)cc1	195 to 199 °C
CCOC(=O)c1c(SC)nn(C(=O)Cc2ccccc2)c1N	120 °C
CCOC(=O)c1c[nH]c(=S)nc1N	256 to 258 °C
COc1ccc(-c2csc(/C(C#N)=N/Nc3cccc(C)c3C)n2)cc1	164 °C
c1cncc(-c2cccnc2)c1	68 °C
Cc1nn(-c2ccccc2)c(N)c1C#N	129 to 131 °C
C=Cc1cc(C)ccc1C	-35 °C
Nc1ccc(-c2cccs2)nc1	144 to 145 °C
Clc1cc2oc3c(Cl)c(Cl)ccc3c2cc1Cl	195 °C
CCOC(=O)c1c(SC)nn(C(N)=O)c1N	155 °C
Cc1ccc(N2C(=O)C=CC2=O)cc1Cl	143 °C
O=C1NC(CCO)C(=O)NC1CCO (stereo unspecified)	188 to 192 °C
Nc1cccc(Br)n1	90 °C
CCOC(=O)C(C#N)=CNc1ccccc1Cl	165 to 167 °C
O=C(Nc1ccc([N+](=O)[O-])cc1[N+](=O)[O-])C(F)(F)C(F)(F)C(F)(F)C(F)(F)C(F)(F)C(F)(F)C(F)(F)C(F)(F)F	125 °C
O=Cc1ccc(Br)cn1	95 °C

----------
The following compounds are shown together with reported melting point values.

RECORD_SMILES	melting point
CN(C(=S)Cl)c1ccc(Br)cc1	101 to 104 °C
COc1c(Br)cc(C(=O)O)cc1Br	224 to 226 °C
CC(=O)CS(=O)(=O)c1ccccc1	55 to 59 °C
N#CCc1ccc(OCc2ccc(Cl)c(Cl)c2)cc1	76 to 77 °C

----------
Attribute: melting point
ENDPOINT: melting point

COMPOUND	ENDPOINT_RESULT
O=C(O)CCCCCCCCCCCC(=O)O	112 to 114 °C
c1ccc2c(c1)OCCOCCOCCOCCOc1ccccc1OCCOCCO2	59 to 63 °C
Cc1ncc([N+](=O)[O-])n1CCCN1C(=O)c2ccccc2C1=O	168 to 169 °C
Cc1cc(C(=O)CBr)ccc1Cl	56 to 57 °C
ClCc1cc(-c2ccco2)on1	47 to 49 °C
Cc1nc(N)nc(Cl)c1Cc1ccccc1	195 to 196 °C
OCC(I)CC(F)(F)C(F)(F)C(F)(F)C(F)(F)C(F)(F)C(F)(F)F (configuration not stated)	45 to 46 °C
NC(=O)Cc1nc(-c2ccccc2)cs1	193 to 194 °C
Cn1nc(-c2ccccc2)cc1CCl	70 to 72 °C
O=Cc1cccc(Cn2cncn2)c1	54 to 56 °C
COc1cc(C(=O)c2ccc(-c3ccccc3)cc2)c([N+](=O)[O-])cc1OC	144 to 145 °C
Brc1ccc(N(c2ccc(Br)cc2)c2ccc(Br)cc2)cc1	142 °C
CC(=O)OCC(=O)C12N=C(C)OC1CC1C3CCC4=CC(=O)C=CC4(C)C3C(O)CC12C (configuration not stated)	256 °C
NC(=S)c1cccc2c1OCCO2	106 to 109 °C
COc1ccccc1C1Nn2c(nnc2-c2ccccc2)S1 (configuration not stated)	196 °C
CCOC(=O)CCCCCCCC(=O)OCC	-18.5 °C
O=C(O)c1cn2ccsc2n1	233 to 234 °C
CC1(C)CCC2(C(=O)O)C(O)CC3(C)C(=CCC4C5(C)CCC(O)C(C)(C=O)C5CCC43C)C2C1 (configuration not stated)	294 °C
NNC(=O)c1ccncc1	171 °C
CCCCCc1cc(O)c2c(c1)OC(C)(C)C1CCC(C)=CC21 (configuration not stated)	200 °C
COc1cc2c(cc1OC)C(c1ccccc1Cl)N(C(C)=O)CC2 (configuration not stated)	186 to 188 °C
NC(=NO)c1cnccc1C(F)(F)F	183 to 185 °C

----------
COMPOUND	melting point
Nc1ccc(C(=O)c2ccccc2)cc1[N+](=O)[O-]	140 to 143 °C
COc1cc(CC(=O)O)c([N+](=O)[O-])cc1OC	111 to 112 °C
O=[N+]([O-])c1ccccc1/C=C(/Cl)c1ccccn1	60.5 to 61 °C
CCOC(=O)c1c(-c2ccccc2)csc1NC(=O)c1ccc(Cl)cc1Cl	149 to 150 °C
CC(=O)c1cc(C#N)c(=O)[nH]c1C	230 to 232 °C
NNC(=O)Cc1nc(-c2cnccn2)no1	184 to 186 °C
CC(=O)NC(Cc1ccc(Br)cc1)C(=O)O (stereo unspecified)	191 to 193 °C
CCOC(=O)c1[nH]c(C)cc1C	125 to 126 °C
CC(=CC(=O)O)C(F)(F)F	28 to 30 °C
NC(=O)C[C@H](NC(=O)OCc1ccccc1)C(=O)O	160 to 165 °C
CCC(O)c1ccc(-c2ccccc2F)cc1 (stereo unspecified)	55 to 56 °C
COc1ccc([N+](=O)[O-])cc1C(F)(F)F	79 to 81 °C
Cc1ccc(C)c2c1COC2=O	88 °C
COc1ccc(Br)cc1C=CC(=O)O	224 to 229 °C
COC(=O)c1cc([N+](=O)[O-])ccc1SC	130 to 132 °C
CC(C)S(=O)(=O)CC#N	32 to 34 °C
